- Test system: Enterococcus spp.
- Assay comment: minimum inhibitory concentration (MIC)
- Conditions: isolate (source animal id): 175
For each record, write down the corresponding minimum inhibitory concentration.

Example cases with answers are listed next.
compound="CC[C@H]1OC(=O)C[C@@H](O)[C@H](C)[C@@H](O[C@@H]2O[C@H](C)[C@@H](O[C@H]3C[C@@](C)(O)[C@@H](O)[C@H](C)O3)[C@H](N(C)C)[C@H]2O)[C@@H](CC=O)C[C@@H](C)C(=O)/C=C/C(C)=C/[C@@H]1CO[C@@H]1O[C@H](C)[C@@H](O)[C@@H](OC)[C@H]1OC [Tylosin]" val="> 32 µg/mL"
compound="CC[C@H]1OC(=O)C[C@@H](O)[C@H](C)[C@@H](O[C@@H]2O[C@H](C)[C@@H](O)[C@H](N(C)C)[C@H]2O)[C@@H](CCN2C[C@H](C)C[C@H](C)C2)C[C@@H](C)C(=O)/C=C/C(C)=C/[C@@H]1CO[C@@H]1O[C@H](C)[C@@H](O)[C@@H](OC)[C@H]1OC [Tilmicosin]" val="> 16 µg/mL"
compound="NC[C@@H]1O[C@H](O[C@H]2[C@@H](O)[C@H](O[C@@H]3[C@@H](O)[C@H](N)C[C@H](N)[C@H]3O[C@H]3O[C@H](CN)[C@@H](O)[C@H](O)[C@H]3N)O[C@@H]2CO)[C@H](N)[C@@H](O)[C@@H]1O [Neomycin]" val="> 32 µg/mL"

Now consider a different compound.
Query C=C[C@]1(C)C[C@@H](OC(=O)CSCCN(CC)CC)[C@]2(C)[C@H](C)CC[C@]3(CCC(=O)[C@H]32)[C@@H](C)[C@@H]1O [Tiamulin] yields minimum inhibitory concentration of > 32 µg/mL

====

- System: Pasteurella multocida
- Assay comment: minimum inhibitory concentration (MIC)
- Conditions: isolate (source animal id): 247
For each record, write down the corresponding minimum inhibitory concentration.

chemical_structure=CN[C@@H]1[C@H](O)[C@H](NC)[C@H]2O[C@@]3(O)C(=O)C[C@@H](C)O[C@H]3O[C@@H]2[C@H]1O val="32 µg/mL"
chemical_structure=CCCNC[C@]1(O)[C@H](C)O[C@@H](O[C@H]2[C@H](C)[C@@H](O[C@@H]3O[C@H](C)C[C@H](N(C)C)[C@H]3O)[C@](C)(O)C[C@@H](C)CN[C@H](C)[C@@H](O)[C@](C)(O)[C@@H](CC)OC(=O)[C@@H]2C)C[C@@]1(C)OC val="16 µg/mL"
chemical_structure=CC1(C)S[C@@H]2[C@H](NC(=O)Cc3ccccc3)C(=O)N2[C@H]1C(=O)O val="≤ 0.12 µg/mL"
chemical_structure=COc1cc(NS(=O)(=O)c2ccc(N)cc2)nc(OC)n1 val="> 256 µg/mL"
chemical_structure=CO/N=C(\C(=O)N[C@@H]1C(=O)N2C(C(=O)O)=C(CSC(=O)c3ccco3)CS[C@H]12)c1csc(N)n1 val="≤ 0.25 µg/mL"

Now consider a different compound.
Query CN(C)[C@@H]1C(O)=C(C(N)=O)C(=O)[C@@]2(O)C(O)=C3C(=O)c4c(O)cccc4[C@@](C)(O)[C@H]3C[C@@H]12 yields minimum inhibitory concentration of > 8 µg/mL

====

For each record, write down the corresponding minimum inhibitory concentration.
- Tested on: Escherichia coli
- Assay comment: minimum inhibitory concentration (MIC)
- Conditions: isolate (source animal id): 9

Example cases with answers are listed next.
chemical_structure=CC[C@H]1OC(=O)C[C@@H](O)[C@H](C)[C@@H](O[C@@H]2O[C@H](C)[C@@H](O[C@H]3C[C@@](C)(O)[C@@H](O)[C@H](C)O3)[C@H](N(C)C)[C@H]2O)[C@@H](CC=O)C[C@@H](C)C(=O)/C=C/C(C)=C/[C@@H]1CO[C@@H]1O[C@H](C)[C@@H](O)[C@@H](OC)[C@H]1OC val="> 32 µg/mL"
chemical_structure=CC1(C)S[C@@H]2[C@H](NC(=O)[C@H](N)c3ccccc3)C(=O)N2[C@H]1C(=O)O val="> 16 µg/mL"

Please look at the items below and tell me minimum inhibitory concentration for each one, in order.
1. CO/N=C(\C(=O)N[C@@H]1C(=O)N2C(C(=O)O)=C(CSC(=O)c3ccco3)CS[C@H]12)c1csc(N)n1
2. COc1cc(NS(=O)(=O)c2ccc(N)cc2)nc(OC)n1
3. CN[C@@H]1[C@H](O)[C@H](NC)[C@H]2O[C@@]3(O)C(=O)C[C@@H](C)O[C@H]3O[C@@H]2[C@H]1O
4. CCC[C@@H]1C[C@@H](C(=O)N[C@@H]([C@H]2O[C@H](SC)[C@H](O)[C@@H](O)[C@H]2O)[C@H](C)Cl)N(C)C1

Resp:
1 µg/mL
> 256 µg/mL
> 64 µg/mL
> 16 µg/mL

====

- Test system: Mannheimia haemolytica
- Assay comment: minimum inhibitory concentration (MIC)
- Conditions: isolate (source animal id): 241
Readout kind: minimum inhibitory concentration

chemical_structure=CC1(C)S[C@@H]2[C@H](NC(=O)[C@H](N)c3ccccc3)C(=O)N2[C@H]1C(=O)O val="> 16 µg/mL"
chemical_structure=COc1cc(Cc2cnc(N)nc2N)cc(OC)c1OC.Cc1cc(NS(=O)(=O)c2ccc(N)cc2)no1 val="≤ 2 µg/mL"
chemical_structure=COc1cc(NS(=O)(=O)c2ccc(N)cc2)nc(OC)n1 val="> 256 µg/mL"

Please look at the items below and tell me minimum inhibitory concentration for each one, in order.
1. CC[C@H]1OC(=O)C[C@@H](O)[C@H](C)[C@@H](O[C@@H]2O[C@H](C)[C@@H](O)[C@H](N(C)C)[C@H]2O)[C@@H](CCN2C[C@H](C)C[C@H](C)C2)C[C@@H](C)C(=O)/C=C/C(C)=C/[C@@H]1CO[C@@H]1O[C@H](C)[C@@H](O)[C@@H](OC)[C@H]1OC
2. NC[C@@H]1O[C@H](O[C@H]2[C@@H](O)[C@H](O[C@@H]3[C@@H](O)[C@H](N)C[C@H](N)[C@H]3O[C@H]3O[C@H](CN)[C@@H](O)[C@H](O)[C@H]3N)O[C@@H]2CO)[C@H](N)[C@@H](O)[C@@H]1O
3. CC[C@H]1OC(=O)C[C@@H](O)[C@H](C)[C@@H](O[C@@H]2O[C@H](C)[C@@H](O[C@H]3C[C@@](C)(O)[C@@H](O)[C@H](C)O3)[C@H](N(C)C)[C@H]2O)[C@@H](CC=O)C[C@@H](C)C(=O)/C=C/C(C)=C/[C@@H]1CO[C@@H]1O[C@H](C)[C@@H](O)[C@@H](OC)[C@H]1OC

Resp:
> 16 µg/mL
> 32 µg/mL
> 32 µg/mL

====

For each record, write down the corresponding minimum inhibitory concentration.
- System: Pasteurella multocida
- Assay comment: minimum inhibitory concentration (MIC)
- Conditions: isolate (source animal id): 277

chemical_structure=CC1(C)S[C@@H]2[C@H](NC(=O)Cc3ccccc3)C(=O)N2[C@H]1C(=O)O experimental_system="Pasteurella multocida" val="≤ 0.12 µg/mL"

Please look at the items below and tell me minimum inhibitory concentration for each one, in order.
1. CC[C@H]1OC(=O)C[C@@H](O)[C@H](C)[C@@H](O[C@@H]2O[C@H](C)[C@@H](O)[C@H](N(C)C)[C@H]2O)[C@@H](CCN2C[C@H](C)C[C@H](C)C2)C[C@@H](C)C(=O)/C=C/C(C)=C/[C@@H]1CO[C@@H]1O[C@H](C)[C@@H](O)[C@@H](OC)[C@H]1OC
2. CCCNC[C@]1(O)[C@H](C)O[C@@H](O[C@H]2[C@H](C)[C@@H](O[C@@H]3O[C@H](C)C[C@H](N(C)C)[C@H]3O)[C@](C)(O)C[C@@H](C)CN[C@H](C)[C@@H](O)[C@](C)(O)[C@@H](CC)OC(=O)[C@@H]2C)C[C@@]1(C)OC
3. CC1(C)S[C@@H]2[C@H](NC(=O)[C@H](N)c3ccccc3)C(=O)N2[C@H]1C(=O)O
4. CN(C)[C@@H]1C(O)=C(C(N)=O)C(=O)[C@@]2(O)C(O)=C3C(=O)c4c(O)cccc4[C@@](C)(O)[C@H]3C[C@@H]12
5. CO/N=C(\C(=O)N[C@@H]1C(=O)N2C(C(=O)O)=C(CSC(=O)c3ccco3)CS[C@H]12)c1csc(N)n1
6. CCN1CCN(c2cc3c(cc2F)c(=O)c(C(=O)O)cn3C2CC2)CC1

Resp:
1: 8 µg/mL; 2: ≤ 8 µg/mL; 3: ≤ 0.25 µg/mL; 4: 8 µg/mL; 5: ≤ 0.25 µg/mL; 6: ≤ 0.12 µg/mL

====

For each record, write down the corresponding minimum inhibitory concentration.
- Tested on: Escherichia coli
- Assay comment: minimum inhibitory concentration (MIC)
- Conditions: isolate (source animal id): 145

Example cases with answers are listed next.
compound="C=C[C@]1(C)C[C@@H](OC(=O)CSCCN(CC)CC)[C@]2(C)[C@H](C)CC[C@]3(CCC(=O)[C@H]32)[C@@H](C)[C@@H]1O [Tiamulin]" experimental_system="Escherichia coli" readout_kind="minimum inhibitory concentration" val="> 32 µg/mL"
compound="CN1C[C@@H]2C[C@H]1CN2c1cc2c(cc1F)c(=O)c(C(=O)O)cn2C1CC1 [Danofloxacin]" experimental_system="Escherichia coli" readout_kind="minimum inhibitory concentration" val="≤ 0.12 µg/mL"
compound="CC[C@H]1OC(=O)C[C@@H](O)[C@H](C)[C@@H](O[C@@H]2O[C@H](C)[C@@H](O)[C@H](N(C)C)[C@H]2O)[C@@H](CCN2C[C@H](C)C[C@H](C)C2)C[C@@H](C)C(=O)/C=C/C(C)=C/[C@@H]1CO[C@@H]1O[C@H](C)[C@@H](O)[C@@H](OC)[C@H]1OC [Tilmicosin]" experimental_system="Escherichia coli" readout_kind="minimum inhibitory concentration" val="> 16 µg/mL"
compound="CN(C)[C@@H]1C(O)=C(C(N)=O)C(=O)[C@@]2(O)C(O)=C3C(=O)c4c(O)cccc4[C@@](C)(O)[C@H]3C[C@@H]12 [Tetracycline]" experimental_system="Escherichia coli" readout_kind="minimum inhibitory concentration" val="> 8 µg/mL"
compound="CO/N=C(\\C(=O)N[C@@H]1C(=O)N2C(C(=O)O)=C(CSC(=O)c3ccco3)CS[C@H]12)c1csc(N)n1 [Ceftiofur]" experimental_system="Escherichia coli" readout_kind="minimum inhibitory concentration" val="0.5 µg/mL"

Please look at the items below and tell me minimum inhibitory concentration for each one, in order.
1. NC[C@@H]1O[C@H](O[C@H]2[C@@H](O)[C@H](O[C@@H]3[C@@H](O)[C@H](N)C[C@H](N)[C@H]3O[C@H]3O[C@H](CN)[C@@H](O)[C@H](O)[C@H]3N)O[C@@H]2CO)[C@H](N)[C@@H](O)[C@@H]1O [Neomycin]
2. CC1(C)S[C@@H]2[C@H](NC(=O)Cc3ccccc3)C(=O)N2[C@H]1C(=O)O [Penicillin]
3. CCCNC[C@]1(O)[C@H](C)O[C@@H](O[C@H]2[C@H](C)[C@@H](O[C@@H]3O[C@H](C)C[C@H](N(C)C)[C@H]3O)[C@](C)(O)C[C@@H](C)CN[C@H](C)[C@@H](O)[C@](C)(O)[C@@H](CC)OC(=O)[C@@H]2C)C[C@@]1(C)OC [Tulathromycin]

Resp:
["> 32 µg/mL", "> 8 µg/mL", "16 µg/mL"]
